Every entry's value here was drawn from ChEMBL document CHEMBL5346891.

# assay comment: Modulation of capsid assembly in HBV genotype G assessed as inhibition of viral replication
# Format: functional, Hepatitis B virus
value kind: pEC50
Answers are plain numbers, as −log10 of the molar value.

Lookup: Tell me the measured pEC50 of `C[C@H](NS(=O)(=O)c1cc(C(=O)Nc2ccc(F)c(C#N)c2)n(C)c1)C(F)(F)F` , please.
Found: 8.00

###

# System: Hepatitis B virus
# assay comment: Antiviral activity against drug-resistant HBV infected in human HepG2.2.15 cells
# Type: functional, organism-based
value kind: pEC50
Numbers only, as −log10 of the molar value.

Lookup: Tell me the measured pEC50 of `CCOC(=O)C1=C(CN2CCOCC2)NC(c2nccs2)=N[C@H]1c1ccc(F)cc1Br` , please.
Found: 8.00
